// data source = patent US10221173B2

Item-by-item account of IC50
target: Estrogen Receptor (ERα) in MCF-7 cells (Homo sapiens (Human), UniProt P03372); assay: MCF-7 ER down-regulation assay (immuno-fluorescence)
Sequence (P03372 whole entry): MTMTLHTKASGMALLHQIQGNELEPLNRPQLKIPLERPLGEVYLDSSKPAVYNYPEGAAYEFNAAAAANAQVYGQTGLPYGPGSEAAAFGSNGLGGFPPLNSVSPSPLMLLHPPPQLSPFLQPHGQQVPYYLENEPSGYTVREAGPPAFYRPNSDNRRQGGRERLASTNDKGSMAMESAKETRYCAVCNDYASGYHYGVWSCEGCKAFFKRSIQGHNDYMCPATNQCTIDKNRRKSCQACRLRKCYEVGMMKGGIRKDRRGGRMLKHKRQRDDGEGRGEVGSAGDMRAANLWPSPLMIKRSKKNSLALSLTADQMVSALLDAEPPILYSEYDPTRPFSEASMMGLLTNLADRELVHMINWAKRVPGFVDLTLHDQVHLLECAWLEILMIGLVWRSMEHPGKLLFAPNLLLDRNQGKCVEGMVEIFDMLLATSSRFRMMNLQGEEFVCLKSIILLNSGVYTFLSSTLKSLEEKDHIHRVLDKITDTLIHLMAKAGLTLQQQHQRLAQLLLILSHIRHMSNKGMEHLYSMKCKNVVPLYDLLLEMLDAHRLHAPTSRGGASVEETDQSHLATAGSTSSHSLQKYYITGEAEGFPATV
measurement-label: IC50 (nM)

> print(dat)
                                   compound  measurement.label  data.value
1  COc1ncc(OCCNCCCF)cc1[C@@H]1c2[nH]c3ccccc3c2C[C@@H](C)N1CC(F)(F)F [Example 36]               IC50        0.35
2  COc1ccc(OCCNCCCF)c(F)c1[C@@H]1c2[nH]c3ccccc3c2C[C@@H](C)N1CC1(F)COC1 [Example 84]               IC50        0.16
3  C[C@@H]1Cc2c([nH]c3ccccc23)[C@@H](c2c(F)ccc(NCCNCCCF)c2F)N1CC(F)(F)F [Example 88]               IC50        0.28
4  Cc1c([C@@H]2c3[nH]c4ccccc4c3C[C@@H](C)N2CC(F)(F)CO)ccnc1OCCNCCCF [Example 103]               IC50       0.084

###

assay: Human plasma protein binding (equilibrium dialysis); format: in vitro ADME
Would you mind labelling by Human plasma protein binding (% free)? At or over 3 % free is rule met, under is rule not met.

> print(dat)
                                  cpd.smiles   label.class
 1  COc1nnc(OCCNCCCF)cc1[C@@H]1c2[nH]c3ccccc3c2C[C@@H](C)N1CC(F)(F)F  rule not met
 2  Cc1ccc(OCCNCCCF)c(C)c1[C@@H]1c2[nH]c3ccccc3c2C[C@@H](C)N1CC(F)(F)F  rule not met
 3  COc1ccc(OCCNCCCF)c(F)c1[C@@H]1c2[nH]c3ccccc3c2C[C@@H](C)N1CC1(F)COC1      rule met
 4  C[C@@H]1Cc2c([nH]c3ccccc23)[C@@H](c2c(Cl)ccc(OCCNCCCF)c2F)N1C[C@H](C)C(=O)O      rule met
 5  Cc1c([C@@H]2c3[nH]c4ccccc4c3C[C@@H](C)N2CC(F)(F)F)ccnc1OCCNCCCF  rule not met
 6  COc1ccc(NCCNCCCF)cc1[C@@H]1c2[nH]c3ccccc3c2C[C@@H](C)N1CC(F)(F)F  rule not met
 7  C[C@@H]1Cc2c([nH]c3ccccc23)[C@@H](c2c(Cl)ccc(OCCNCCCF)c2F)N1CC(F)(F)F  rule not met
 8  COc1ccc(OCCNCCCF)c(F)c1[C@@H]1c2[nH]c3ccc(F)cc3c2C[C@@H](C)N1CC(F)(F)CO  rule not met
 9  Cc1c([C@@H]2c3[nH]c4ccccc4c3C[C@@H](C)N2C[C@H](C)C(=O)O)ccnc1OCCNCCCF      rule met
10  C[C@@H]1Cc2c([nH]c3ccccc23)[C@@H](c2ccnc(OCCNCCCF)c2Cl)N1CC(F)(F)CO  rule not met
11  C[C@@H]1Cc2c([nH]c3ccccc23)[C@@H](c2cc(OCCNCCCF)ccc2CO)N1CC(F)(F)F      rule met
12  COc1ccc(NCCNCCCF)c(F)c1[C@@H]1c2[nH]c3ccccc3c2C[C@@H](C)N1CC(F)(F)F  rule not met
13  C[C@@H]1Cc2c([nH]c3cccc(F)c23)[C@@H](c2c(F)ccc(OCCNCCCF)c2F)N1CC(F)(F)CO  rule not met
14  COc1ccc(O[C@H](C)CNCCCF)cc1[C@@H]1c2[nH]c3ccccc3c2C[C@@H](C)N1CC(F)(F)CO      rule met
15  COc1ccc(OCCNCCCF)cc1[C@@H]1c2[nH]c3ccccc3c2C[C@@H](C)N1C[C@H](C)C(=O)O      rule met

###

assay: Thermodynamic solubility (shake-flask); format: physicochemical; conditions: aqueous phosphate buffer, 25 °C, pH 7.4, aqueous buffer, thermodynamic from solid, phosphate buffer pH 7.4, 24 hours
measurement-label: solubility at 24 h

> print(dat)
                                 cpd.smiles   measurement.label  data.value
1  C[C@@H]1Cc2c([nH]c3ccccc23)[C@@H](c2cc(OCCNCCCF)ncn2)N1CC(F)(F)F  solubility at 24 h    < 1.6 µM
2  C[C@@H]1Cc2c([nH]c3ccc(F)cc23)[C@@H](c2c(F)cnc(OCCNCCCF)c2F)N1CC1(F)CC1  solubility at 24 h      176 µM
3  C[C@@H]1Cc2c([nH]c3ccccc23)[C@@H](c2c(F)ccc(OCCNCCCF)c2F)N1C[C@H](C)C(=O)O  solubility at 24 h   > 1000 µM
4  COc1ccc(OCCNCCCF)c(F)c1[C@@H]1c2[nH]c3ccc(F)cc3c2C[C@@H](C)N1CC(F)(F)CO  solubility at 24 h      385 µM

###

biological target: estrogen receptor (ERα) in CAMA-1 cells (Homo sapiens (Human)); experiment: Western blotting assay, ER down-regulation in CAMA-1; type: cell-based; details: CAMA-1, 100 nM compound, 48 h, vs 100 nM fulvestrant
# CAMA1 Western % ER deg vs Fv listing for each entry below
measurement-label: CAMA1 Western % ER deg vs Fv (%)

> print(dat)
                                  cpd.smiles  unit.of.measure  data.value
 1  C[C@@H]1Cc2c([nH]c3cc(F)ccc23)[C@@H](c2c(F)ccc(OCCNCCCF)c2F)N1CC(F)(F)CO                %          83
 2  C[C@@H]1Cc2c([nH]c3ccccc23)[C@@H](c2cccc(OCCNCCCF)c2)N1CC(F)(F)F                %          83
 3  C[C@@H]1Cc2c([nH]c3ccccc23)[C@@H](c2c(F)ccc(OCCNCCCF)c2F)N1CC(F)F                %          93
 4  C[C@@H]1Cc2c([nH]c3ccccc23)[C@@H](c2nccc(OCCNCCCF)c2F)N1CC(F)(F)F                %          91
 5  COc1ccc(OCCNCCCF)cc1[C@@H]1c2[nH]c3ccccc3c2C[C@@H](C)N1CC1(F)COC1                %          75
 6  Cc1c(OCCNCCC(F)F)ccc(F)c1[C@@H]1c2[nH]c3ccccc3c2C[C@@H](C)N1C[C@H](C)C(=O)O                %          82
 7  COc1ccc(OCCNCCCF)cc1[C@@H]1c2[nH]c3ccc(F)cc3c2C[C@@H](C)N1CC(F)(F)CO                %          89
 8  CCc1ccc(OCCNCCCF)cc1[C@@H]1c2[nH]c3ccccc3c2C[C@@H](C)N1CC(F)(F)F                %          95
 9  COc1ccc(NCCNCCCF)cc1[C@@H]1c2[nH]c3ccccc3c2C[C@@H](C)N1CC(F)(F)F                %          70
10  Cc1c(OCCN(C)CCCF)ccc(F)c1[C@@H]1c2[nH]c3ccccc3c2C[C@@H](C)N1C[C@H](C)C(=O)O                %          71
11  C[C@@H]1Cc2c([nH]c3ccccc23)[C@@H](c2c(F)ccc(OCCNCCCF)c2F)N1CC(F)(F)CO                %          95
12  C[C@@H]1Cc2c([nH]c3ccccc23)[C@@H](c2cc(OCCNCCCF)ccn2)N1CC(F)(F)F                %          92
13  C[C@@H]1Cc2c([nH]c3ccccc23)[C@@H](c2nccc(OCCNCCCF)c2F)N1CC(F)(F)CO                %          84
14  COc1ccc(OCCNCCCF)c(F)c1[C@@H]1c2[nH]c3ccccc3c2C[C@@H](C)N1CC(F)(F)F                %          92
15  C[C@@H]1Cc2c([nH]c3c(F)cccc23)[C@@H](c2c(F)ccc(OCCNCCCF)c2F)N1CC(F)(F)CO                %          97

###

biological target: Estrogen Receptor (ERα) in MCF-7 cells (Homo sapiens (Human), UniProt P03372); assay: MCF-7 ER down-regulation assay (immuno-fluorescence)
Consider the following compounds and their measured IC50 readings.
measurement-label: IC50 (nM)

> print(dat)
                                   compound  data.value
1  CC(CN1[C@H](c2c(Cl)ccc(OCCNCCCF)c2Cl)c2[nH]c3ccc(F)cc3c2C[C@H]1C)C(=O)O (single isomer, unassigned) [Example 129]         2.6
2  C[C@@H]1Cc2c([nH]c3ccccc23)[C@@H](c2nccc(OCCNCCCF)c2F)N1CC(F)F [Example 98]         1.2
3  C[C@@H]1Cc2c([nH]c3ccccc23)[C@@H](c2c(F)c(F)cc(OCCNCCCF)c2F)N1CC(F)(F)F [Example 32]        0.38
4  Cc1c(OCCNCCC(F)F)ccc(F)c1[C@@H]1c2[nH]c3ccccc3c2C[C@@H](C)N1C[C@@H](C)C(=O)O [Example 123]        0.96
